Would you kindly list protein stability index for each of these variants?
B1: WEE1 (parent)
chain: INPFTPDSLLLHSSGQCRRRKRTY

Variants of: B1
method: protein stability index of a GFP-peptide fusion (GPS, HEK-293T) (PSI 1-6); higher = more stable;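 further: lentivirally expressed fusions sorted by FACS into six bins by GFP to DsRed ratio, PSI derived from sequencing read proportions per bin multiplied by bin number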
setup conditions: c terminus: a fixed tail appended
The reply should be a number, written without any unit.

Query: // query protein stability index value for entry INPFTPDSLLLWSSGQCRRRKRTY [H12W]
Response: 2.19

Query: Also INPCTPDSLLLHSSGQCRRRKRTY [F4C] , if possible.
Response: 3.67

Query: Also INPFTPDSLQLHSSGQCRRRKRTY [L10Q] , if possible.
Response: 3.5

Query: Also INPFTPDSLSLHSSGQCRRRKRTY [L10S] , if possible.
Response: 3.88

Query: Also INPFTPDSLELHSSGQCRRRKRTY [L10E] , if possible.
Response: 3.41

Query: Also INPFTPDSLLLHSSGQCNRRKRTY [R18N] , if possible.
Response: 3.12

Query: Also INPFTPDSLLLHSSGQCRRFKRTY [R20F] , if possible.
Response: 2.48

Query: Also INPFTPDSLLKHSSGQCRRRKRTY [L11K] , if possible.
Response: 4.2

Query: Also INPFTPDSLLLHMSGQCRRRKRTY [S13M] , if possible.
Response: 2.84

Query: Also INPFTNDSLLLHSSGQCRRRKRTY [P6N] , if possible.
Response: 4.07

Query: Also INPFTPDSLLLHSSGQCRRRPRTY [K21P] , if possible.
Response: 3.08

Query: Also INPFTPDSLLLFSSGQCRRRKRTY [H12F] , if possible.
Response: 3.03

Query: Also INPFLPDSLLLHSSGQCRRRKRTY [T5L] , if possible.
Response: 3.04

Query: Also INPFEPDSLLLHSSGQCRRRKRTY [T5E] , if possible.
Response: 3.98

Query: Also INPFTPDSLLLHSMGQCRRRKRTY [S14M] , if possible.
Response: 2.42

Query: Also INPFTPDSLLLHSSGQCSRRKRTY [R18S] , if possible.
Response: 3.41

Query: Also INPFTPDSLLLHWSGQCRRRKRTY [S13W] , if possible.
Response: 2.54

Query: Also INPFTLDSLLLHSSGQCRRRKRTY [P6L] , if possible.
Response: 2.06

Query: Also IWPFTPDSLLLHSSGQCRRRKRTY [N2W] , if possible.
Response: 2.39

Query: Also INPFTPDKLLLHSSGQCRRRKRTY [S8K] , if possible.
Response: 3.35

Query: Also SNPFTPDSLLLHSSGQCRRRKRTY [I1S] , if possible.
Response: 3.52

Query: Also IPPFTPDSLLLHSSGQCRRRKRTY [N2P] , if possible.
Response: 3.29
